# System: SARS-CoV-2 Wk-521 strain
# test_details: SARS-CoV-2 infection assay, viral RNA in culture supernatant (VeroE6/TMPRSS2 cells)
# Assay type: cell-based
# applied_conditions: Severe acute respiratory syndrome coronavirus 2; SARS-CoV-2 viral RNA in culture supernatant, 24 h post-inoculation; VeroE6/TMPRSS2 cells; read-out: IC50
I'd appreciate it if you could supply IC50 values for the items below.
Give bare numbers, in µM.

Query: Look up and report IC50, with SARS-CoV-2 Wk-521 strain as system, for C[C@]12CC[C@H](O)C[C@@H]1CC[C@@H]1[C@@H]2CC[C@@]2(C)[C@H]1CC[C@@H]2[C@](C)(O)CCc1ccc(F)cc1
Result: 7.4

Query: Provide IC50, recorded with SARS-CoV-2 Wk-521 strain, of CCC(CC)COC(=O)[C@H](C)N[P@](=O)(OC[C@H]1O[C@@](C#N)(c2ccc3c(N)ncnn23)[C@H](O)[C@@H]1O)Oc1ccccc1 [RDV, remdesivir, reference compound]
Result: 1.5

Query: Send back SARS-CoV-2 Wk-521 strain IC50 of C[C@]12CC[C@H]3[C@@H](CC=C4C[C@@H](O)CC[C@@]43C)[C@@H]1CC[C@@H]2[C@](C)(O)CCc1cccnc1 only.
Result: 5.5

Query: Using SARS-CoV-2 Wk-521 strain as the test system, report measured IC50 of CC(C)[C@@H](O)CC[C@@H](C)[C@H]1CC[C@H]2[C@@H]3CC=C4C[C@@H](O)CC[C@]4(C)[C@H]3CC[C@]12C [24(S)-OHC, 24(S)-hydroxycholesterol, reference compound] .
Result: 1.3

Query: Give IC50 for this entry on SARS-CoV-2 Wk-521 strain: C[C@@H](CO)CCC[C@@H](C)[C@H]1CC[C@H]2[C@@H]3CC=C4C[C@@H](O)CC[C@]4(C)[C@H]3CC[C@]12C [Oxy 27-OHC, 27-hydroxycholesterol, reference compound]
Result: 3.5

New cases:
Query: Tell me IC50 of CC(C)CC[C@@H](O)[C@@H](C)[C@H]1CC[C@H]2[C@@H]3CC=C4C[C@@H](O)CC[C@]4(C)[C@H]3CC[C@]12C [22(R)-OHC, 22(R)-hydroxycholesterol, reference compound] when tested on SARS-CoV-2 Wk-521 strain.
Result: 13.2

---

# Test system: VeroE6/TMPRSS2 cells
# applied_conditions: MTT assay; 24 h; VeroE6/TMPRSS2 cells
Record form. Attribute: CC50. Fill in for each entry.

Some compounds with known CC50 results, for comparison:
Query: Assign CC50 to the following record: CC(C)CCC[C@@H](C)[C@H]1CC[C@H]2[C@@H]3CC=C4[C@@H](O)[C@@H](O)CC[C@]4(C)[C@H]3CC[C@]12C [Oxy 4-beta-OHC, 4beta-hydroxysterol, reference compound]
Result: > 30 µM

Query: # return recorded CC50 for input CC(C)[C@@H](O)CC[C@@H](C)[C@H]1CC[C@H]2[C@@H]3CC=C4C[C@@H](O)CC[C@]4(C)[C@H]3CC[C@]12C [24(S)-OHC, 24(S)-hydroxycholesterol, reference compound]
Result: > 30 µM

Query: Give me measured CC50, please, for this compound: CCCCCC[C@](C)(O)[C@H]1CC[C@H]2[C@@H]3C[C@H](O)[C@H]4C[C@@H](O)CC[C@]4(C)[C@H]3CC[C@@]21C
Result: > 15 µM

Provide CC50 for all items below, preserving their order.
1. CC[C@@](O)(CCc1cccnc1)[C@H]1CC[C@H]2[C@@H]3CC[C@H]4C[C@@H](O)CC[C@]4(C)[C@H]3CC[C@]12C
2. C[C@]12CC[C@H](O)C[C@@H]1CC[C@@H]1[C@@H]2CC[C@@]2(C)[C@H]1CC[C@@H]2[C@](C)(O)CCc1ccc(F)cc1
3. CC(C)CC[C@H](O)[C@@H](C)[C@H]1CC[C@H]2[C@@H]3CC=C4C[C@@H](O)CC[C@]4(C)[C@H]3CC[C@]12C [22(S)-OHC, 22(S)-hydroxycholesterol, reference compound]
4. CC(C)CCC[C@@H](C)[C@H]1CC[C@H]2[C@@H]3C(=O)C=C4C[C@@H](O)CC[C@]4(C)[C@H]3CC[C@]12C [Oxy 7-KC, 7-ketocholesterol, reference compound]

Result:
["> 15 µM", "> 15 µM", "> 30 µM", "> 30 µM"]

All figures here come from patent US20230364111A1.
